System: PXR homodimer (NR concentration 270 nM)
TEST SUMMARY: PBM binding z-score (relative to random genomic background probes); higher = stronger binding; sequences stand for … in GC…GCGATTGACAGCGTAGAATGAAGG
Label N if PBM binding z-score falls below -0.4; label Y in every other case.

Illustrative cases are given below, each with its answer.
>  <SEQUENCE CONTENT>
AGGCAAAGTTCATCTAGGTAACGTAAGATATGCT

>  <ASSIGNED CATEGORY>
Y

$$$$
>  <SEQUENCE CONTENT>
GATACAGGGTCAAGGCCAGAGTTCGCGTATTGAT

>  <ASSIGNED CATEGORY>
Y

$$$$
>  <SEQUENCE CONTENT>
TTATATAGGTAAAAGGTGAAAGTCGGTGTGGTAA

>  <ASSIGNED CATEGORY>
Y

$$$$
>  <SEQUENCE CONTENT>
TAGCCTAGGTCAGGGGCCAGTATACCACGCGAAC

>  <ASSIGNED CATEGORY>
N

$$$$
>  <SEQUENCE CONTENT>
CAAACTAGGTCACCGGAAGGTGAAAGTCCGCATG

>  <ASSIGNED CATEGORY>
Y

$$$$

In plain terms: is recorded PBM binding z-score at least -0.4 for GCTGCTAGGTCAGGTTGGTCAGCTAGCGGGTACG ?
N

Then this sequence: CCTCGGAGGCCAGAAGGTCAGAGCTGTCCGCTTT
N

Then this sequence: CCTGCTAGGTCATGGTCCGCTAATCTACAGTATG
N

Then this sequence: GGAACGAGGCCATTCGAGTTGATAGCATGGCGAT
Y
